B1: CDC34 (parent)
chain: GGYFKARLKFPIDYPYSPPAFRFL

# Variants of: B1
# Experiment Notes: protein stability index of a GFP-peptide fusion (GPS, HEK-293T) (PSI 1-6); higher = more stable;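 note: lentivirally expressed fusions sorted by FACS into six bins by GFP to DsRed ratio, PSI derived from sequencing read proportions per bin multiplied by bin number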
# Condition Summary: c terminus: a fixed tail appended
Threshold rule: protein stability index greater than or equal to 3 is Yes; below that, No.

Illustrative cases are given below, each with its answer.
[
  {
    "Mutant Label": "L8C",
    "Class Name": "No"
  },
  {
    "Mutant Label": "G1P",
    "Class Name": "No"
  },
  {
    "Mutant Label": "F23P",
    "Class Name": "Yes"
  },
  {
    "Mutant Label": "G2C",
    "Class Name": "No"
  },
  {
    "Mutant Label": "R7V",
    "Class Name": "Yes"
  },
  {
    "Mutant Label": "D13F",
    "Class Name": "Yes"
  },
  {
    "Mutant Label": "D13N",
    "Class Name": "No"
  },
  {
    "Mutant Label": "R22P",
    "Class Name": "No"
  },
  {
    "Mutant Label": "G1A",
    "Class Name": "No"
  }
]

Request: Hi team, for S17N , is the recorded protein stability index at or above 3?
Result: Yes
